These data points were gathered from ChEMBL document CHEMBL1140704.

Below is a list of entries, each paired with its recorded Ratio Ki value.
Species: Homo sapiens
Experiment: Selectivity for human D3 receptor over human D2L receptor
Respond with the number and no other words.

>>> df
                                   molecule  endpoint_label  result
0  CCCN(CCN1CCN(c2ccccc2OC)CC1)C1CCc2c(O)cccc2C1 (racemic)        Ratio Ki    12.8
1  CCCN(CCN1CCN(c2ccccc2)CC1)C1CCc2cc(O)ccc2C1 (stereo not drawn)        Ratio Ki    57.9

Now for another entry.
Incoming: I'd like to know its Ratio Ki. The molecule in question is CCCN(CCN1CCN(c2ccccc2)CC1)C1CCc2cc(O)c(O)cc2C1 (stereo not drawn)
Outgoing: 50.6

* * *

Below is a list of entries, each paired with its recorded EC50 value.
Biological target: D(2) dopamine receptor (Homo sapiens)
Sequence (P14416 whole entry): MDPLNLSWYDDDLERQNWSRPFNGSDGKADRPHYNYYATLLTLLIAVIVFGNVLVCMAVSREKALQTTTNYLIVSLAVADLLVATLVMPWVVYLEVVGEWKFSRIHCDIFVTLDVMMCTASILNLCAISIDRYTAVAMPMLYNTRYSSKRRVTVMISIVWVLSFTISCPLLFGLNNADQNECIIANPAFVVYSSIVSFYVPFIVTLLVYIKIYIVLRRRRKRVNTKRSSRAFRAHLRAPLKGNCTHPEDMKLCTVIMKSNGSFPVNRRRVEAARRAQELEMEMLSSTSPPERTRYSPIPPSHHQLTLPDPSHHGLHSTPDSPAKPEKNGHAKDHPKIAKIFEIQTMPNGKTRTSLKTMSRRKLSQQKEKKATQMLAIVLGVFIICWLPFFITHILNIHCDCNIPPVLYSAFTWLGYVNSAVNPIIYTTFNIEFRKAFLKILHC
Experiment: Agonist activity at human cloned dopamine D2L receptor expressed in CHO cells assessed as stimulation of [35S]GTPgammaS binding
Respond with the bare value in nM.

In [3]: df
Out[3]:
                                   molecule                            test_target  output_unit  result
0  CCCN(CCN1CCN(c2ccccc2OC)CC1)C1CCc2c(O)cccc2C1 (single isomer, unassigned; (-))  D(2) dopamine receptor (Homo sapiens)           nM    1.56

Now for another entry.
Incoming: I'd like to know its EC50. The molecule in question is CCCN(CCN1CCN(c2ccccc2)CC1)C1CCc2ccc(O)cc2C1 (configuration not stated)
Outgoing: 12.2

* * *

Molecular target: D(2) dopamine receptor (Homo sapiens)
pKi: −log10 of the molar value.
Mark MET for reported pKi of 7 or greater; mark NOT MET for anything smaller.

>>> df
                                   compound                            test_target  group_label
0  CCCN(CCN1CCN(c2ccccc2OC)CC1)C1CCc2c(O)cccc2C1 (racemic)  D(2) dopamine receptor (Homo sapiens)          MET
1  Oc1ccc2c(c1)CC(N(CCc1cccs1)CCN1CCN(c3ccccc3)CC1)CC2 (configuration not stated)  D(2) dopamine receptor (Homo sapiens)          MET
2  CCCN(CCN1CCN(c2ccccc2OC)CC1)C1CCc2c(O)cccc2C1 (single isomer, unassigned; (-))  D(2) dopamine receptor (Homo sapiens)          MET
3  CCCN(CCCCN1CCN(c2ccccc2)CC1)C1CCc2cc(O)c(O)cc2C1 (configuration not stated)  D(2) dopamine receptor (Homo sapiens)          MET

Query compound follows.
Incoming: Dear colleague, could you confirm whether CCCN(CCCN1CCN(c2ccccc2)CC1)C1CCc2ccc(O)cc2C1 (configuration not stated) has pKi at or above 7?
Outgoing: NOT MET

* * *

Below is a list of entries, each paired with its recorded Ratio Ki value.
Species on record: Homo sapiens
Experiment: Selectivity for human D3 receptor over human D2L receptor
Respond with the number and no other words.

In [3]: df
Out[3]:
                                   compound  result
0  CCCN(CCCCN1CCN(c2ccccc2)CC1)C1CCc2ccc(O)cc2C1 (stereo in doubt; (+)-13)    25.8

Incoming: I'd like to know its Ratio Ki. The compound in question is CCCN(CCCCN1CCN(c2ccccc2)CC1)C1CCc2ccc(O)cc2C1 (stereo in doubt; (-)-13)
Outgoing: 15.9

Incoming: I'd like to know its Ratio Ki. The compound in question is CCCN(CCCCN1CCN(c2ccccc2)CC1)C1CCc2cc(O)c(O)cc2C1 (stereo not given)
Outgoing: 7.51

Incoming: I'd like to know its Ratio Ki. The compound in question is CCCN(CCN1CCN(c2ccccc2OC)CC1)C1CCc2c(O)cccc2C1 (single isomer, unassigned; (-))
Outgoing: 20.9

Incoming: I'd like to know its Ratio Ki. The compound in question is CCCN(CCCN1CCN(c2ccccc2)CC1)C1CCc2ccc(O)cc2C1 (stereo not given)
Outgoing: 16.2
